System: Mycobacterium tuberculosis strain EH4.0 expressing green-fluorescent protein (GFP)
assayNotes: microbe, parasite or virus in culture
Format: cell-based
testSettings: Test 1 (and/or Test 2), read-out: pIC50 (converted)
readoutType: IC50 (nM)
Give just the number in nM; leave the unit off.

[in] # get_value(readout='IC50', item= CCC1=NN(c2ncc(CNC(=O)c3c(CC)nc4ncc(C)cn34)cc2F)CCN1S(=O)(=O)C(F)(F)F )
[out] 6.31

[in] Which value of IC50 has been reported for CCc1nc2ccc(C)cn2c1C(=O)NCc1ccc(N2CCN(S(=O)(=O)C(F)(F)F)C(C3CC3)=N2)cc1 in the records?
[out] 1.07

[in] Name the recorded IC50 for Cc1ccc2nc(C(F)(F)F)c(C(=O)NCc3ccc(N4CCN(S(=O)(=O)C(F)(F)F)C=N4)c(F)c3)n2c1 .
[out] 1.58

[in] Name the recorded IC50 for CCc1nc2ccc(Cl)cn2c1C(=O)NCc1ccc(N2CCN(c3nccs3)C(OC)=N2)cc1 .
[out] 11

[in] Reported IC50, compound CCc1nc2ncc(C)cn2c1C(=O)NCc1ccc(N2CCN(S(=O)(=O)C(F)(F)F)C(C3CC3)=N2)cc1 : ____
[out] 1.45

[in] Look up IC50 for this compound: CCc1nc2ccc(OC)cn2c1C(=O)NCc1ccc(N2CCN(S(=O)(=O)C(F)(F)F)C(OC)=N2)cc1
[out] 3.98

[in] Which IC50 is reported for this compound? CCc1nc2ccc(C)cn2c1C(=O)NCc1cnc(N2CCN(S(=O)(=O)C(F)(F)F)C(C3CC3)=N2)c(F)c1
[out] 1.51

====

System: Mycobacterium tuberculosis strain EH4.0 expressing green-fluorescent protein (GFP)
assayNotes: microbe, parasite or virus in culture
Assay type: cell-based
testSettings: Test 1 (and/or Test 2), read-out: pIC50 (converted)
Decision: IC50 beneath 2 nM gives rule met; IC50 meeting or exceeding 2 nM gives rule not met.

[in] Given the entry CC1=NN(c2ccc(CNC(=O)c3c(C(F)(F)F)nc4ncccn34)cc2F)CCN1S(=O)(=O)C(F)(F)F , would its reported IC50 be below 2 nM?
[out] rule not met

[in] Does CCc1nc2c(F)cc(Cl)cn2c1C(=O)NCc1ccc(N2CCN(S(=O)(=O)C(F)(F)F)C(C3CC3)=N2)c(F)c1 have IC50 strictly under 2 nM?
[out] rule met

[in] For CC(C)C1=NN(c2ccc(CNC(=O)c3c(C(F)(F)F)nc4n3CCCC4)cc2F)CCN1S(=O)(=O)C(F)(F)F , is the recorded IC50 below the cut-off of 2 nM?
[out] rule not met

[in] Given the entry CC1=NN(c2ccc(CNC(=O)c3c(C(F)(F)F)nc4ccccn34)cc2F)CCN1S(=O)(=O)C(F)(F)F , would its reported IC50 be below 2 nM?
[out] rule met

[in] Does the reported IC50 of CCc1nc2ncc(Cl)cn2c1C(=O)NCc1cc(F)c(N2CCN(S(=O)(=O)C(F)(F)F)C=N2)c(F)c1 stay below 2 nM?
[out] rule not met

[in] Could you please tell me whether IC50 recorded for CCc1nc2n(c1C(=O)NCc1ccc(N3CCN(S(=O)(=O)C(F)(F)F)C(C(C)C)=N3)c(F)c1)CCCC2 is less than 2 nM?
[out] rule not met

[in] Hi there! Is IC50 for O=C(NCc1ccc(N2CCN(S(=O)(=O)C(F)(F)F)C=N2)c(F)c1)c1c(C(F)(F)F)nc2ccc(Cl)cn12 below 2 nM, do you know?
[out] rule not met

====

Format: physicochemical
testSettings: 48 h, 30 μM
readoutType: chemical stability (% by LCMS), ACN/H2O (%)
Record the value in %, omitting the unit from your answer.

[in] Item under review: Cc1ccc2nc(C(F)F)c(C(=O)NCc3ccc(N4CCN(S(=O)(=O)C(F)(F)F)C(C(C)C)=N4)c(F)c3)n2c1 . Reported chemical stability (% by LCMS), ACN/H2O?
[out] 100

[in] Find the recorded chemical stability (% by LCMS), ACN/H2O belonging to CCC1=NN(c2ccc(CNC(=O)c3c(CC)nc4ncc(C)cn34)cc2F)CCN1S(=O)(=O)C(F)(F)F and report it.
[out] 95

[in] Can you share its chemical stability (% by LCMS), ACN/H2O? I mean this compound: CCc1nc2ccc(C)cn2c1C(=O)NCc1ccc(N2CCN(S(=O)(=O)C(F)(F)F)C(C(=O)OC)=N2)cc1
[out] 99

[in] Entry CCc1nc2cc(C)c(C)cn2c1C(=O)NCc1ccc(N2CCN(S(=O)(=O)C(F)(F)F)C(C(C)C)=N2)c(F)c1 has what chemical stability (% by LCMS), ACN/H2O?
[out] 100

[in] For the compound shown here, CCc1nc2c(F)cc(Cl)cn2c1C(=O)NCc1ccc(N2CCN(S(=O)(=O)C(F)(F)F)C(C3CC3)=N2)c(F)c1 , give the reported chemical stability (% by LCMS), ACN/H2O.
[out] 98

[in] Entry CCC1=NN(c2ccc(CNC(=O)c3c(C(F)(F)F)nc4ccccn34)cc2F)CCN1S(=O)(=O)C(F)(F)F : reported chemical stability (% by LCMS), ACN/H2O = ?
[out] 99

[in] Need chemical stability (% by LCMS), ACN/H2O of CCc1nc2ccc(C)cn2c1C(=O)NCc1ccc(N2CCN(S(=O)(=O)C(F)(F)F)C(C(N)=O)=N2)cc1 , thanks.
[out] 100

====

Could you please report measured chemical stability (% by LCMS), ACN/0.1N HCl for the items listed next?
Format: physicochemical
testSettings: 48 h, 30 μM, pH 1.6
Write the figure, then the unit, nothing else.

[in] Using the record for CCc1nc2ncc(C)cn2c1C(=O)NCc1cnc(N2CCN(S(=O)(=O)C(F)(F)F)C(C)=N2)c(F)c1 [Compound 255] , report its chemical stability (% by LCMS), ACN/0.1N HCl.
[out] 98%

[in] Need chemical stability (% by LCMS), ACN/0.1N HCl of CCc1nc2c(F)cc(Cl)cn2c1C(=O)NCc1ccc(N2CCN(S(=O)(=O)C(F)(F)F)C(C3CC3)=N2)c(F)c1 [Compound 231] , thanks.
[out] 98%

[in] Sample CCC1=NN(c2ccc(CNC(=O)c3c(C(F)(F)F)nc4ccccn34)cc2F)CCN1S(=O)(=O)C(F)(F)F [Compound 233] — what was its chemical stability (% by LCMS), ACN/0.1N HCl?
[out] 99%

[in] Query: chemical stability (% by LCMS), ACN/0.1N HCl; subject: CCc1nc2ccc(C)cn2c1C(=O)NCc1ccc(N2CCN(S(=O)(=O)C(F)(F)F)C(C(=O)OC)=N2)cc1 [Compound 258]
[out] 100%

[in] Find the recorded chemical stability (% by LCMS), ACN/0.1N HCl belonging to CC1=NN(c2ccc(CNC(=O)c3c(C(F)(F)F)nc4ncc(C)cn34)cc2F)CCN1S(=O)(=O)C(F)(F)F [Compound 257] and report it.
[out] 99%

[in] Any idea what chemical stability (% by LCMS), ACN/0.1N HCl was measured for CCc1nc2c(F)cc(Cl)cn2c1C(=O)NCc1ccc(N2CCN(S(=O)(=O)C(F)(F)F)C(C(C)C)=N2)c(F)c1 [Compound 238] ?
[out] 100%

[in] Looking for the measured chemical stability (% by LCMS), ACN/0.1N HCl of CCC1=NN(c2ccc(CNC(=O)c3c(CC)nc4ncc(C)cn34)cc2F)CCN1S(=O)(=O)C(F)(F)F [Compound 234] , can you help?
[out] 97%

====

Assay type: physicochemical
testSettings: 48 h, 30 μM
Exercise: state measured chemical stability (% by LCMS), ACN/H2O for each of the molecules provided.
Enter your answer as a number in %; do not include the unit.

[in] Please look up its chemical stability (% by LCMS), ACN/H2O: CCC1=NN(c2ncc(CNC(=O)c3c(CC)nc4ncc(C)cn34)cc2F)CCN1S(=O)(=O)C(F)(F)F [Compound 235]
[out] 99

[in] Given CCc1nc2ncc(C)cn2c1C(=O)NCc1ccc(N2CCN(S(=O)(=O)C(F)(F)F)C(C)=N2)c(F)c1 [Compound 251] , state its recorded chemical stability (% by LCMS), ACN/H2O.
[out] 100

[in] Which chemical stability (% by LCMS), ACN/H2O is reported for this molecule? CC1=NN(c2ccc(CNC(=O)c3c(C(F)(F)F)nc4ccccn34)cc2F)CCN1S(=O)(=O)C(F)(F)F [Compound 252]
[out] 99

[in] // chemical stability (% by LCMS), ACN/H2O lookup, key: CCc1nc2ncc(C)cn2c1C(=O)NCc1cnc(N2CCN(S(=O)(=O)C(F)(F)F)C(C)=N2)c(F)c1 [Compound 255]
[out] 100

[in] Given the molecule CC(C)C1=NN(c2ccc(CNC(=O)c3c(C(F)(F)F)nc4ccccn34)cc2F)CCN1S(=O)(=O)C(F)(F)F [Compound 247] , what is its reported chemical stability (% by LCMS), ACN/H2O?
[out] 100

[in] Item under review: CC1=NN(c2ccc(CNC(=O)c3c(C(F)(F)F)nc4ncc(C)cn34)cc2F)CCN1S(=O)(=O)C(F)(F)F [Compound 257] . Reported chemical stability (% by LCMS), ACN/H2O?
[out] 99
